- Experimental system: Toll-like receptor 1/2 (Homo sapiens, UniProt O60603+Q15399)
- Sequence (O60603 whole entry): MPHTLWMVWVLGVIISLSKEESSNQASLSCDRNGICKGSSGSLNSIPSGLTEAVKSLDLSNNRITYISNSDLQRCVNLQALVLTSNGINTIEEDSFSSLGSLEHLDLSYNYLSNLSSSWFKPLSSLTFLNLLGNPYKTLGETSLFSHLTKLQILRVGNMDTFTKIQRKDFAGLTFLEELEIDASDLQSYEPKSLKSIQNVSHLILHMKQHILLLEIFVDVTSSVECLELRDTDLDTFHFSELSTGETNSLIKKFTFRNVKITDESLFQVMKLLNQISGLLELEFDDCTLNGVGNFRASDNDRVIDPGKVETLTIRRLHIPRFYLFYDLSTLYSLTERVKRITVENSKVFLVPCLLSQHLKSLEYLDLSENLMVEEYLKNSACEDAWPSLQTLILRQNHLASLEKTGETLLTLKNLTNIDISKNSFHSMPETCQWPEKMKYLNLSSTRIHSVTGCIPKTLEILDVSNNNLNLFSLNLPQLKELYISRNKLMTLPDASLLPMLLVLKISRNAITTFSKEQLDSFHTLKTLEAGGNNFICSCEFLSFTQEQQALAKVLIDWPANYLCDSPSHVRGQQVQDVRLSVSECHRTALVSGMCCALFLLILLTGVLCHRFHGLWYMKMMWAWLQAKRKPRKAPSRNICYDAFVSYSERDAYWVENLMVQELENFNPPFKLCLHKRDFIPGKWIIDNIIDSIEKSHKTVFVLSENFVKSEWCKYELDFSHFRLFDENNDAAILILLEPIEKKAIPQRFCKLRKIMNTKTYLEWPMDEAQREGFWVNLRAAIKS
- Sequence (Q15399 whole entry): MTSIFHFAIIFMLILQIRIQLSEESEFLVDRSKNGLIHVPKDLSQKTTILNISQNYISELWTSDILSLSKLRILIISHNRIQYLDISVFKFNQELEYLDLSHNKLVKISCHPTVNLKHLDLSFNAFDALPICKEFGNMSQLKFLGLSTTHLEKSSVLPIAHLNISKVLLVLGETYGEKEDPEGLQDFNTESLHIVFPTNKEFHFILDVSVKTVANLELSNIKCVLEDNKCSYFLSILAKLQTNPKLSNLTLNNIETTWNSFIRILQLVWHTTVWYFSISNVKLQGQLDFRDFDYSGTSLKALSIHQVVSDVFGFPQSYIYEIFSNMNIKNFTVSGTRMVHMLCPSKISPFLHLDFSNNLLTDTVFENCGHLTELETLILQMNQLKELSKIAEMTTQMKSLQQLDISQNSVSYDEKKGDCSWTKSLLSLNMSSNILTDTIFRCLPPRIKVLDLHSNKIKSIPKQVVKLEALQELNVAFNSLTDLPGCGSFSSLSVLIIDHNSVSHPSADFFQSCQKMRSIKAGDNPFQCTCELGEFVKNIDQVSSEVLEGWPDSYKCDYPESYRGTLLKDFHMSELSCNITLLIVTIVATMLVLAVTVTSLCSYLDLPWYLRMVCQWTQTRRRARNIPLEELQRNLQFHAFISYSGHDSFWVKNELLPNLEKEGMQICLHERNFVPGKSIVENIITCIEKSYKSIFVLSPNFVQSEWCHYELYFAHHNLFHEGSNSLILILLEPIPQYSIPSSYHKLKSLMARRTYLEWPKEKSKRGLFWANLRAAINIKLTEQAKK
- Method notes: Agonist activity at TLR2/TLR1 in human THP-1 cells
- Assay type: cell-based

{"Compound": "Cc1ccc([C@H]2C[C@@H]2NC(=O)[C@@H]2CN(C(=O)c3ccc(C(=O)N4C[C@@H](C(=O)N[C@H]5C[C@@H]5c5ccc(C)cc5)[C@H](C(=O)N[C@@H]5C[C@H]5c5ccc(C)cc5)C4)cc3)C[C@H]2C(=O)N[C@H]2C[C@@H]2c2ccc(C)cc2)cc1", "Output unit": "nM", "Censoring sign": "=", "EC50": 360}
{"Compound": "CCCCCCCCCCCCNC(=O)[C@@H]1CN(C(=O)c2ccc(C(=O)N3C[C@@H](C(=O)N[C@H]4C[C@@H]4c4ccccc4)[C@H](C(=O)N[C@@H]4C[C@H]4c4ccccc4)C3)cc2)C[C@H]1C(=O)N[C@H]1C[C@@H]1c1ccccc1", "Output unit": "nM", "Censoring sign": "=", "EC50": 0.1}
{"Compound": "O=C(N[C@H]1C[C@@H]1c1ccccc1)[C@@H]1CN(C(=O)COCC(=O)N2C[C@@H](C(=O)N[C@H]3C[C@@H]3c3ccccc3)[C@H](C(=O)N[C@H]3C[C@@H]3c3ccccc3)C2)C[C@H]1C(=O)N[C@H]1C[C@@H]1c1ccccc1", "Output unit": "nM", "Censoring sign": ">", "EC50": 5000}
{"Compound": "CCCCCCCCCCNC(=O)[C@@H]1CN(C(=O)c2ccc(C(=O)N3C[C@@H](C(=O)N[C@H]4C[C@@H]4c4ccccc4)[C@H](C(=O)N[C@@H]4C[C@H]4c4ccccc4)C3)cc2)C[C@H]1C(=O)NCCCCCCCCCC", "Output unit": "nM", "Censoring sign": "=", "EC50": 0.18}
{"Compound": "O=C(NCCc1ccc(F)cc1)[C@@H]1CN(C(=O)c2ccc3cc(C(=O)N4C[C@@H](C(=O)NCCc5ccc(F)cc5)[C@H](C(=O)NCCc5ccc(F)cc5)C4)ccc3c2)C[C@H]1C(=O)NCCc1ccc(F)cc1", "Output unit": "nM", "Censoring sign": ">", "EC50": 5000}
{"Compound": "COC(=O)c1ccc(CCNC(=O)[C@@H]2CN(C(=O)c3ccc(C(=O)N4C[C@@H](C(=O)NCCc5ccc(C(=O)OC)cc5)[C@H](C(=O)NCCc5ccc(C(=O)OC)cc5)C4)cc3)C[C@H]2C(=O)NCCc2ccc(C(=O)OC)cc2)cc1 (racemic)", "Output unit": "nM", "Censoring sign": ">", "EC50": 5000}

----------
- Experimental system: Toll-like receptor 2 (Homo sapiens, UniProt O60603)
- Sequence (O60603 whole entry): as the sequence (O60603 whole entry) above
- Method notes: Agonist activity at human TLR2 transfected in HEK293 cells
- Format: cell-based
In this section we review reported EC50 values for a set of compounds.
Readout type: EC50

{"Compound": "CCCCCCCCCCCC(=O)OC[C@H](CSC[C@@H](N)C(=O)NCCCCCCN)OC(=O)CCCCCCCCCCC", "Readout type": "EC50", "Result": "1.22 µM"}
{"Compound": "CCCCCCCCCCCC(=O)OC[C@H](CSC[C@@H](N)C(=O)NCCCOCCCCOCCCCN)OC(=O)CCCCCCCCCCC", "Readout type": "EC50", "Result": "0.81 µM"}
{"Compound": "CCCCCCCCCCCC(=O)OC[C@H](CSC[C@@H](N)C(=O)NCCCCN)OC(=O)CCCCCCCCCCC", "Readout type": "EC50", "Result": "1.04 µM"}
{"Compound": "CCCCCCCCCCCC(=O)OC[C@H](CSC[C@@H](N)C(=O)NCCOCCOCCN)OC(=O)CCCCCCCCCCC", "Readout type": "EC50", "Result": "1.29 µM"}
{"Compound": "CCCCCCCCCCCC(=O)OC[C@H](CSC[C@@H](N)C(=O)NCCCCCN)OC(=O)CCCCCCCCCCC", "Readout type": "EC50", "Result": "1.22 µM"}
{"Compound": "CCCCCCCCCCCC(=O)OC[C@H](CSC[C@@H](N)C(=O)NCCCCCCCCCC(=O)O)OC(=O)CCCCCCCCCCC", "Readout type": "EC50", "Result": "4.4 µM"}
{"Compound": "CCCCCCCCCCCC(=O)OC[C@H](CSC[C@@H](N)C(=O)N[C@@H](CC)COCC(=O)O)OC(=O)CCCCCCCCCCC", "Readout type": "EC50", "Result": "6.5 µM"}
{"Compound": "CCCCCCCCCCCCCC(=O)OC[C@H](CSC[C@@H](N)C(=O)NCCOCCOCCOCCP(=O)(O)O)OC(=O)CCCCCCCCCCCCC", "Readout type": "EC50", "Result": "0.0063 µM"}
{"Compound": "CCCCCCCCCCCC(=O)OC[C@H](CSC[C@@H](N)C(=O)NC(C)CCN(CC)CC)OC(=O)CCCCCCCCCCC (stereo not given in full)", "Readout type": "EC50", "Result": "0.257 µM"}
{"Compound": "CCCCCCCCCCCC(=O)OC[C@H](CSC[C@@H](N)C(=O)N[C@H](C)COCCCP(=O)(O)O)OC(=O)CCCCCCCCCCC", "Readout type": "EC50", "Result": "0.0192 µM"}
{"Compound": "CCCCCCCCCCCC(=O)OC[C@H](CSC[C@@H](N)C(=O)NC(C)CCC(C)C)OC(=O)CCCCCCCCCCC (stereo not given in full)", "Readout type": "EC50", "Result": "0.19 µM"}
{"Compound": "CCCCCCCCCCCC(=O)OC[C@H](CSC[C@@H](N)C(=O)NCCOCCC(F)(F)P(=O)(O)O)OC(=O)CCCCCCCCCCC", "Readout type": "EC50", "Result": "0.014 µM"}
{"Compound": "CCCCCCCCNC(=O)OC[C@H](CSC[C@@H](N)C(=O)NCCOCCOCCOCCP(=O)(O)O)OC(=O)NCCCCCCCC", "Readout type": "EC50", "Result": "7.03 µM"}
{"Compound": "CCCCCCCCCCCC(=O)OC[C@H](CSC[C@@H](N)C(=O)NCCCOCCOCCOCCCN)OC(=O)CCCCCCCCCCC", "Readout type": "EC50", "Result": "0.498 µM"}
{"Compound": "CCCCCCCCCCNC(=O)OC[C@H](CSC[C@@H](NC(C)=O)C(=O)NCCOCCOCCOCCP(=O)(O)O)OC(=O)NCCCCCCCCCC", "Readout type": "EC50", "Result": "0.83 µM"}

----------
In this section we review reported EC50 values for a set of molecules.
- Experimental system: Toll-like receptor 1/2 (Mus musculus)
- Method notes: Agonist activity at TLR2/TLR1 in mouse Macrophage cell line
Readout type: EC50

{"Smiles input": "O=C(NCCc1ccc(F)cc1)[C@@H]1CN(C(=O)/C=C/C(=O)N2C[C@@H](C(=O)NCCc3ccc(F)cc3)[C@H](C(=O)NCCc3ccc(F)cc3)C2)C[C@H]1C(=O)NCCc1ccc(F)cc1", "Experimental system": "Toll-like receptor 1/2 (Mus musculus)", "Readout type": "EC50", "Result": "> 5 µM"}
{"Smiles input": "CCCCNC(=O)[C@@H]1CN(C(=O)c2ccc(C(=O)N3C[C@@H](C(=O)NCCCC)[C@H](C(=O)NCCCC)C3)cc2)C[C@H]1C(=O)NCCCC", "Experimental system": "Toll-like receptor 1/2 (Mus musculus)", "Readout type": "EC50", "Result": "> 0.005 µM"}
{"Smiles input": "O=C(NCCc1ccc(F)cc1)[C@@H]1CN(C(=O)[C@H]2CC[C@@H](C(=O)N3C[C@@H](C(=O)NCCc4ccc(F)cc4)[C@H](C(=O)NCCc4ccc(F)cc4)C3)CC2)C[C@H]1C(=O)NCCc1ccc(F)cc1", "Experimental system": "Toll-like receptor 1/2 (Mus musculus)", "Readout type": "EC50", "Result": "> 5 µM"}

----------
- Experimental system: Toll-like receptor 1/2 (Homo sapiens, UniProt O60603+Q15399)
- Method notes: Agonist activity at TLR2/TLR1 in human THP-1 cells
- Format: cell-based
pEC50: −log10 of the molar value.

{"Smiles input": "O=C(NCCc1ccc(F)cc1)[C@@H]1CN(C(=O)COCC(=O)N2C[C@@H](C(=O)NCCc3ccc(F)cc3)[C@H](C(=O)NCCc3ccc(F)cc3)C2)C[C@H]1C(=O)NCCc1ccc(F)cc1", "Experimental system": "Toll-like receptor 1/2 (Homo sapiens, UniProt O60603+Q15399)", "pEC50": "< 5.30"}
{"Smiles input": "CCCCNC(=O)[C@@H]1CN(C(=O)c2ccc(C(=O)N3C[C@@H](C(=O)NCCCC)[C@H](C(=O)NCCCC)C3)cc2)C[C@H]1C(=O)NCCCC", "Experimental system": "Toll-like receptor 1/2 (Homo sapiens, UniProt O60603+Q15399)", "pEC50": "< 8.30"}
{"Smiles input": "O=C(N[C@H]1C[C@@H]1c1ccccc1)[C@@H]1CN(C(=O)[C@@H]2CCC[C@H](C(=O)N3C[C@@H](C(=O)N[C@H]4C[C@@H]4c4ccccc4)[C@H](C(=O)N[C@H]4C[C@@H]4c4ccccc4)C3)C2)C[C@H]1C(=O)N[C@H]1C[C@@H]1c1ccccc1", "Experimental system": "Toll-like receptor 1/2 (Homo sapiens, UniProt O60603+Q15399)", "pEC50": "< 5.30"}
